I'd be grateful if you could share measured Neu for these entries.
Organism: Rattus norvegicus
assayExplanation: Open TG-GATES - Regimen: Single
Format: toxicity, organism-based, Sprague-Dawley
Design: regimen Single, gender Male, age 6 weeks
runConditions: in vivo, po, 0 mg/kg, 9 h, tissue Blood, route gavage, dose level Control
Give the figure together with its unit, number first.

Identify measured Neu associated with CCC(C)(C)C(=O)O[C@H]1C[C@@H](C)C=C2C=C[C@H](C)[C@H](CC[C@@H]3C[C@@H](O)CC(=O)O3)[C@H]21 8.2%

Identify measured Neu associated with CCSCC[C@H](N)C(=O)O 19.2%

Identify measured Neu associated with O=C(N[C@H](CO)[C@H](O)c1ccc([N+](=O)[O-])cc1)C(Cl)Cl 25%

Identify measured Neu associated with C[C@]12CCC(=O)C=C1CC[C@@H]1[C@@H]2CC[C@@]2(C)[C@H]1CC[C@]2(C)O 21.2%

Identify measured Neu associated with CN1C(=O)OC(C)(C)C1=O 21.4%

---

Species on record: Rattus norvegicus
assayExplanation: Open TG-GATES - Regimen: Single
Type: toxicity, organism-based, Sprague-Dawley
Parameters: regimen Single, gender Male, age 6 weeks
runConditions: in vivo, po, 0 mg/kg, 6 h, tissue Plasma, route gavage, dose level Control
assayReadout: GLC
Give the figure together with its unit, number first.

Identify measured GLC associated with CC(=N)S [THIOACETAMIDE] 182.4 mg/dL

Identify measured GLC associated with CC(C)(S)[C@@H](N)C(=O)O 175.8 mg/dL

Identify measured GLC associated with O=C(N[C@H](CO)[C@H](O)c1ccc([N+](=O)[O-])cc1)C(Cl)Cl 187.6 mg/dL

Identify measured GLC associated with O=C(O)c1cccnc1 196.8 mg/dL

Identify measured GLC associated with C[C@]12CCC(=O)C=C1CC[C@@H]1[C@@H]2CC[C@@]2(C)[C@H]1CC[C@]2(C)O 185.4 mg/dL

Identify measured GLC associated with Oc1ncnc2[nH]ncc12 185.4 mg/dL

Identify measured GLC associated with Nc1nc(N)c2nc(-c3ccccc3)c(N)nc2n1 179.2 mg/dL

Identify measured GLC associated with CCc1oc2ccccc2c1C(=O)c1cc(I)c(O)c(I)c1 180.2 mg/dL

Identify measured GLC associated with CCSCC[C@H](N)C(=O)O 196 mg/dL

Identify measured GLC associated with CCN1CCCC1CNC(=O)c1cc(S(N)(=O)=O)ccc1OC (centres undefined) [SULPIRIDE] 192.2 mg/dL

Identify measured GLC associated with CC(=O)Oc1cc(C(C)C)c(OCCN(C)C)cc1C 183.4 mg/dL

Identify measured GLC associated with CN1C(=O)OC(C)(C)C1=O 176.4 mg/dL

Identify measured GLC associated with C[C@](N)(Cc1ccc(O)c(O)c1)C(=O)O 177.6 mg/dL

Identify measured GLC associated with CC(C)C(=O)Nc1ccc([N+](=O)[O-])c(C(F)(F)F)c1 [FLUTAMIDE] 193.6 mg/dL

---

Organism: Rattus norvegicus
assayExplanation: Open TG-GATES - Regimen: Daily Repeat
Type: toxicity, organism-based, Sprague-Dawley
Parameters: regimen Daily Repeat, gender Male, age 6 weeks
runConditions: in vivo, po, 1000 mg/kg, […], tissue Plasma, route gavage, dose level High, time 7 day
assayReadout: AST (IU/L)
Expressed in IU/L, but write only the number.

Identify measured AST associated with CC(C)(S)[C@@H](N)C(=O)O [PENICILLAMINE] 49.6

Identify measured AST associated with O=C(O)c1cccnc1 [NIACIN] 77.6

Identify measured AST associated with O=C(N[C@H](CO)[C@H](O)c1ccc([N+](=O)[O-])cc1)C(Cl)Cl [CHLORAMPHENICOL] 77.4

Identify measured AST associated with CCN1CCCC1CNC(=O)c1cc(S(N)(=O)=O)ccc1OC (centres undefined) [SULPIRIDE] 74.2
